Test system: MS2 coat protein
method: apparent KD of MS2 coat protein; designed switch direction (-1 OFF switch, 1 ON switch): -1; higher = weaker reporter binding
assay_setup: Eterna round: R95; input ligand: none
readout_label: apparent KD of MS2 coat protein (nM)
Provide the reading as a plain figure in nM.

Fill in the blank: the reported apparent KD of MS2 coat protein of AUAAGCUUUUAUAUCCUUAACAUGAGGAUCACCCAUGUUCGUCUUAUGAUGGUCUGAUCCCUGAGGAUCGGACCGUU [JL-sv1-2.04 Brourd Mod] (puzzle: Sensor v3, turn-off variant 1) is ____.
29.9

Param item = CUUAGCCUAAAAUCACGCAAGCUUUUCGCUUGUCUUAAGACAUGAGGAUCACCCAUGUCCGGGCUGAACUUAUGGAA [Esenma] (puzzle: Sensor v3, turn-off variant 2) ; retrieve measured apparent KD of MS2 coat protein.
18.5

Item GGUCAAGAGCAGAUCCGCGCUGCUAUUGACCGCUCAUUUACAUGAGGAUCACCCAUGUUUUUUGCUCGUCUUAUUAC [Biinedmaa] (puzzle: Sensor v3, turn-off variant 2) has what recorded apparent KD of MS2 coat protein?
18.7

* * *

Form field: apparent KD of MS2 coat protein (one value per entry).
Test system: MS2 coat protein
method: apparent KD of MS2 coat protein; higher = weaker reporter binding
assay_setup: Eterna round: R107; input ligand: tryptophan 2.4 mM
Hi! Could you send only the number? It should be in nM, unit omitted.

Look over these answered cases.
• ACCUGUACGAAAAGUGCAGGACACGGAAUACGAGGACCGGUACGGCCGCCACUCGGAACCUGAGGAUCACCCUGGUAAAACCGUG [TrypAS 13 #AlternativeMS2 #Zipper #StaticStem] = 19.5
• AAUAAAUCGCCUGAUACCAGCGCUGGCGGACAUGAGGAUCACCCAUGUGUUACAGGCGGACGCCCUUGGCAGCGGAGCGGGAUCU [U-Shape] = 19.6
• UAGCGAUAAUCUGAUACCAGACGUGUACUCUCCUCAGACAUGAGCAUCAGCCAUGUAUGCGUCCCUUGGCAGCAGAGAUAGGAGA [Theo B Ex t5b] = 16.9
• GUAUAAAGAAAACUUUAUACAGUGGGUGAACGAGGACCGGUACGGCCGCCACUCGGACAUGAGGAUCACCCAUGUCCAUGUGAAA [AstrosExyTryA#9] = 37.2
• UGACAGAUAACCGCUGGUGCUCUUGAGUUGCGAGGACCGGUACGGCCGCCACUCGACAACAUGAGGAUCACCCAUGUUGCGGGUC [Soleeror] = 85.1

// moving on: another record for apparent KD of MS2 coat protein
Could you tell me which apparent KD of MS2 coat protein is on file for ACAUGAGGAUCACCCAUGUCAGGGCACGAUACCAGCUGAUCCGGUGGCCCUUGGCAGCGUGACGAGUGGUCAUGAGGAUCACACG [?fmullin] ?
130

* * *

System: K4 kissing-loop RNA reporter
method: apparent KD of K4 kissing-loop reporter; higher = weaker reporter binding
assay_setup: Eterna round: R107; input ligand: theophylline 20 uM
I would appreciate it if you labelled entries 1 (yes) when apparent KD of K4 kissing-loop reporter is 200 nM or higher, otherwise 0 (no).

Example results:
• GGGAGGAGUGGUGUUGAUUAGGGAGCGGAAGGAGCGCCGAGGAAGGCAGGUAGGUCGCCGGAUUAUAGUGAUGUUAUGAAGAGGG [ExArg.J] = 1 (yes)
• UUUUUAUAAGAGGAUACCAGUACAAAUAAAGUACAUUAAUAGUAGAGUGAUGUUCUAAAGUACCCUUGGCAGCUUAGAGUAAGUU [ExTheophylB.C] = 1 (yes)
• GUAUUGUGAAUGGAUACCAGACACCCGAGUGAUGUUCGGAGCAGAGUGAUGUUCUAAUAAGUCCCUUGGCAGCCGGAAGCAGCCG [Same State Theophylline B GF 3] = 1 (yes)

Please find the next sequence below.
Does the reported apparent KD of K4 kissing-loop reporter for UGUCAUGGAAACAUGAACGUUGAAAUAAGACGAGGACCGGUACGGCCGCCACUCGAAUAAUGGUCAGUGAUGUUGACUGGAAUAA [KL-SSTryp-A form1 sub7 #dotplot2>1] fall at or above the 200 nM mark?
0 (no)

* * *

Test system: K4 kissing-loop RNA reporter
method: apparent KD of K4 kissing-loop reporter; higher = weaker reporter binding
assay_setup: Eterna round: R107; input ligand: tryptophan 2.4 mM
Overview of recorded apparent KD of K4 kissing-loop reporter for various sequences
API: value field is a number in µM; no unit string.

Solved cases below.
- AUGCAGUGAUGUUGCUUUGUAUAAACAGAUACCAGUGAAUUUUAACACCCUUGGCAGCUGAUAGAUUCUUAAUUCUAUUAUAUAA [JR_SSTheophyA_Sub020]: 0.14
- GAUAGUUAGAGAGAUACCAGCGAUACCUAGAUGGAAAGUGAUGUUCGCCAUCAAUUGCACCGCCCUUGGCAGCUCUCUCUUUGCU [theeternabot_exclusion_KL_Theo_B_37]: 0.959
- UGUAUGGACUGAAGGAGCGCUAGGAGUGUGAGUGAUGUUCAUACAAAUGUAUAGAUGGUCUGGCAGGUAGGUCGCAGUCCAUACU [KL-SSArg B4]: 0.184
- GCAGACCGCAGUGAUGUUGCGAAAUCGGAAGGAGCGCGUGAAAACGCAGGUAGGUCGCCGACACAGGGAUUAUAACCCUGUUUGC [Arginine A K4 16]: 0.154
- AGAGAUAUAUGAGGAUAUGAGAUAGUUAAUGAGUGAGUUUUAGUGUUGUUUGGUUAGUGAUGUUAUUUAGAAGGCGUGAGUGAUG [grrfullin]: 0.0657

I'd like to know its apparent KD of K4 kissing-loop reporter. The sequence in question is GAUAUAUAGACGGCCGCCACUUAUAAAUUUCAGUGAUGUUGAAAUGUUAAAUAACGAACACAAUAGAGGACCGGGUCAAAUAUCG [Same State Tryptophan B GF 2]
0.171

* * *

Test system: K4 kissing-loop RNA reporter
method: apparent KD of K4 kissing-loop reporter; higher = weaker reporter binding
assay_setup: Eterna round: R107; input ligand: FMN 200 uM
readout_label: apparent KD of K4 kissing-loop reporter
Write the numeric value and follow it with the unit.

These solved cases illustrate the format of a correct answer.
* CUCAAACCGUGGGCAUUUCGCAAAGUAGAUACCAGUCGCAACGGUGACCCUUGGCAGCUAGUAAAGUGAUGUUUUAUCGGCACCA [theeternabot_exclusion_KL_Theo_A_35] | 78.4 nM
* AACGCUGGAUGAAUAACAUCUAGCGAAAUUCGAGGACCGGUACGGCCGCCACUCGAGCUAACUGCGAGUGAUGUUCGAUAAUAAA [Mat - Mod of OpenEnded 3 - D5] | 228 nM

Using the record for UGUCAUGGAAACAUGAACGUUGAAAUAUGACGAGGACCGGUACGGCCGCCACUCGAGUAAUGGUCAGUGAUGUUGACUGGAUUAA [KL-SSTryp-A form1 sub5 #split stat1] , report its apparent KD of K4 kissing-loop reporter.
59.9 nM

Entry AGUGUUGUUUUUUUUAAGAGUGAUGUUUUUCGAGGACCGGUACGGCCGCCACUCGAGUGAUGAGUGAGGUGUGGUGAUGAUUAGU [#10 K4 Tryptophan A Exclusion] : reported apparent KD of K4 kissing-loop reporter = ?
816 nM

Bench note: what apparent KD of K4 kissing-loop reporter did CACUUACGUAGUGAUGUUACGAUCUCUGAUACCAGACAACUCUAAGUCCCUUGGCAGCAGUCAUUUUGCUUAUUAUUUACUCAAA [JR_ExcTheophyA_Sub017] show?
647 nM

Which value of apparent KD of K4 kissing-loop reporter has been reported for AAUGUAAUGACGGCCGCCACUGAUUACCAGUGAUGUUGGUAAAGAACUUUAUAAGUCCUGGAAACCAGGACCGGGUCAACGGUCC [Tryp B Ex t1] in the records?
345 nM

So what's the measured apparent KD of K4 kissing-loop reporter for this one? AAUUCUUAUCUUAGUAGAUUUCUAAUUAAACGAGGACCGGUACGGCCGCCACUCGGUUAUGAGUGAUGUUCAUGGAAUUACAUAA [JR_SSTryptoA_Sub018]
285 nM

Fill in: apparent KD of K4 kissing-loop reporter of UGUACCGAGUCAGGAUAUCAUAAUAAAUGCAGUGAUGUUGCAAUAACCAGUACAAAAGUGCUGGAUUGAGAAGGGACUUGGUACU [FmnBS 5 #SwitchBubble #StaticStem] is ___
99 nM

* * *

Test system: K4 kissing-loop RNA reporter;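 also: bound reporter read as fluorescence of individual clusters on recovered sequencing chips by microscopy, with normalized cluster intensities fitted with a binding model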
method: apparent KD of K4 kissing-loop reporter; higher = weaker reporter binding
assay_setup: Eterna round: R107; input ligand: arginine 13.2 mM
readout_label: apparent KD of K4 kissing-loop reporter (µM)
Only the number, expressed in µM, is required.

• AUUAAUUUCAGAGGAUAUCGUUAUUUUUUUAAGUAUAAUCUAUUUUGCAGUGAUGUUGCUAUUAAUCGAGAAGGCUGAUUUAUAA [JR_SSFMNB_Sub020] = 0.14

Read the next record carefully.
Look up apparent KD of K4 kissing-loop reporter: CAUUCGAAAUGCAGUGAUGUUGCAACUGAUACCAGUAUCGAAAGAUACCCUUGGCAGCGGAAAACCGCUACGUAUUUUUUGAAUG [Ex Theophylline A K4 25]
0.317
